assay-target: T1, human cloned SST-R2 (human, UniProt P30874 1-369)
T1 construct: whole, on cells; Assayed as membrane preparations of CHO cells expressing the cloned receptor, not as intact cells; also called hSST-R2; human SST-R2
T1 sequence (P30874 whole entry): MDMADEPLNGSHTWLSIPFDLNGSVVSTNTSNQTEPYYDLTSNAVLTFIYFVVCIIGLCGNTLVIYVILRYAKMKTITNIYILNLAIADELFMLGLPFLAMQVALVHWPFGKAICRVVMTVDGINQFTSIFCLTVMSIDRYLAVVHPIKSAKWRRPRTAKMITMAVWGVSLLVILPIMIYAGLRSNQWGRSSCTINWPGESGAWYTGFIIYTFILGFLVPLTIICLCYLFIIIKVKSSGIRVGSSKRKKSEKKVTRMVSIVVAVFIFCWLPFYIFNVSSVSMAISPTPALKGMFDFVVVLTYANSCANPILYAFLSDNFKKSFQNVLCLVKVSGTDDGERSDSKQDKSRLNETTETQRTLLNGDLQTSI
experiment-summary: inhibition of 125I-Tyr11-SRIF-14 binding to membranes of CHO cells expressing cloned human SST-R2
*1 amine or outer side, *2 acyl side, *3 side chain or, on linkers, in order; H or OH if unused. Where no end group is shown, it is not given here. [ ]: non-standard residue; d: D form. ReO = oxorhenium(V), one metal core binding both hemi-chelators, from trichlorooxobis(triphenylphosphine)rhenium(V); GlyN6 = Gly building unit carrying an omega-amine (Cys attached there); N(2-Aminoethyl)Gly = O=C(CN(CCN[*:3])[*:1])[*:2]
Can you tell me IC50 for the items I'm about to list?

// sample CXFWWKTFG (L-Cys at 1; GABA at 2 (written X); D-Trp at 5; GlyN3 building unit at 9 with L-Cys on its omega-amine; C-terminal amide; ReO (oxorhenium(V)) chelated by the two Cys closes the ring) [ReO-GF-17] , its IC50 was 24 nM

Entry CGFW[dW]KTF[N(2-Aminoethyl)Gly](Cys)-NH2 (bridge (positions not given here) via ReO; not fully specified (bridges); also: N2S2 oxorhenium(V) chelate via the two Cys) [ReO-GF-41] , IC50 reported as > 10 nM

Record CFWWKTFG (not fully specified; L-Cys at 1; D-Trp at 4; GlyN6 building unit at 8 with D-Cys on its omega-amine; C-terminal amide; ReO (oxorhenium(V)) chelated by the two Cys closes the ring, also called ReO-LCys*-Phe-Trp-DTrp-Lys-Thr-Phe-GlyN6(DCys*)-NH2) [ReO-GF-14] . Reported IC50: 7 nM

Measured IC50, CXFWWKTFG (L-Cys at 1; beta-Ala at 2 (written X); D-Trp at 5; GlyN2 building unit at 9 with L-Cys on its omega-amine; C-terminal amide; ReO (oxorhenium(V)) chelated by the two Cys closes the ring, also called ReO-LCys*-βAla-Phe-Trp-DTrp-Lys-Thr-Phe-GlyN2(LCys*)-NH2) [ReO-GF-37] : 3 nM

Reported IC50 of CFWWKTFG (not fully specified; D-Cys at 1; D-Trp at 4; GlyN2 building unit at 8 with L-Cys on its omega-amine; C-terminal amide; ReO (oxorhenium(V)) chelated by the two Cys closes the ring) [ReO-GF-47] : > 10 nM

Per the record, CGFWWKTFG (not fully specified; D-Cys at 1; D-Trp at 5; GlyN2 building unit at 9 with L-Cys on its omega-amine; C-terminal amide; ReO (oxorhenium(V)) chelated by the two Cys closes the ring) [ReO-GF-43] has IC50 of > 10 nM

Form: binder = CXFWWKTFG (L-Cys at 1; GABA at 2 (written X); D-Trp at 5; GlyN2 building unit at 9 with D-Cys on its omega-amine; C-terminal amide; ReO (oxorhenium(V)) chelated by the two Cys closes the ring) [ReO-GF-34] ; IC50 = ~100 nM

The binder listed as CXFWWKTFG (not fully specified; D-Cys at 1; beta-Ala at 2 (written X); D-Trp at 5; GlyN6 building unit at 9 with L-Cys on its omega-amine; C-terminal amide; ReO (oxorhenium(V)) chelated by the two Cys closes the ring) [ReO-GF-7] has a reported IC50 of 12 nM

CFW[dW]KTF[GlyN6](Cys)-NH2 (bridge (positions not given here) via ReO; not fully specified (bridges); also: oxorhenium(V) metal chelate (N2S2)) [ReO-GF-13] yielded IC50 of ~10 nM

Recorded IC50 (binder CFWWKTFG (not fully specified; D-Cys at 1; D-Trp at 4; GlyN3 building unit at 8 with L-Cys on its omega-amine; C-terminal amide; ReO (oxorhenium(V)) chelated by the two Cys closes the ring, also called ReO-DCys*-Phe-Trp-DTrp-Lys-Thr-Phe-GlyN3(LCys*)-NH2) [ReO-GF-31] ): 1.6 nM

Looking up CGFW[dW]KTF[N(2-Aminoethyl)Gly](dC)-NH2 (bridge (positions not given here) via ReO; not fully specified (bridges); also: N2S2 oxorhenium(V) chelate via the two Cys) [ReO-GF-42] , I see its IC50 listed as > 10 nM

# binder CXFWWKTFG (D-Cys at 1; beta-Ala at 2 (written X); D-Trp at 5; GlyN3 building unit at 9 with L-Cys on its omega-amine; C-terminal amide; ReO (oxorhenium(V)) chelated by the two Cys closes the ring) [ReO-GF-23] ; its IC50 = ~10 nM

Query CXFWWKTFG (not fully specified; D-Cys at 1; GABA at 2 (written X); D-Trp at 5; GlyN2 building unit at 9 with D-Cys on its omega-amine; C-terminal amide; ReO (oxorhenium(V)) chelated by the two Cys closes the ring) [ReO-GF-36] yields IC50 of > 10 nM
